Molecular target: T1, EsCas13d, nuclease-dead (Eubacterium siraeum, UniProt B0MS50, R295A;H300A;R849A;H854A)
T1 sequence: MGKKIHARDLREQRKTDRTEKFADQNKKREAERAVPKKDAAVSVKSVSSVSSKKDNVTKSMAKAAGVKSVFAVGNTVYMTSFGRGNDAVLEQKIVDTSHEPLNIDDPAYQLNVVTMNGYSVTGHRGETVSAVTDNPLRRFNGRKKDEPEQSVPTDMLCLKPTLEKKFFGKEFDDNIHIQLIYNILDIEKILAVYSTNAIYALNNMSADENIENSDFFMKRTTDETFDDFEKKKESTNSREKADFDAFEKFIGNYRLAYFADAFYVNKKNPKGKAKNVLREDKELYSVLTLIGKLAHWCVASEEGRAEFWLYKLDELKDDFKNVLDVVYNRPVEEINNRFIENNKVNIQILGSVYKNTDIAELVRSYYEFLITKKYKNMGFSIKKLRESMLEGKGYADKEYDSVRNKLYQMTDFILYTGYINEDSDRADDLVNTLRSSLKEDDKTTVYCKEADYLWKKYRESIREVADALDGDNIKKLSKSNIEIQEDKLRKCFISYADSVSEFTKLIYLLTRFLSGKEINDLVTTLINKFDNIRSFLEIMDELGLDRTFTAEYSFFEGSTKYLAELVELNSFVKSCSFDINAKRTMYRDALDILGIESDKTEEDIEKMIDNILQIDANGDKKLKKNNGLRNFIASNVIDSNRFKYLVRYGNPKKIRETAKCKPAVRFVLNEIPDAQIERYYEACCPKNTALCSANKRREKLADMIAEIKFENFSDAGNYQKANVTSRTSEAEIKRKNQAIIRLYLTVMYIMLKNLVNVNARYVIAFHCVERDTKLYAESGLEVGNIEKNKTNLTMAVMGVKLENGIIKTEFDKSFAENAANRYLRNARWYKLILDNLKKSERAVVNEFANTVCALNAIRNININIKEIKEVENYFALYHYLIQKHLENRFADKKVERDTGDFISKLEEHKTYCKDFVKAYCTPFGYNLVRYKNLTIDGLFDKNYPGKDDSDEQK
Experiment: crRNA (strand 1, pre-loaded); Mg2+; 40 mM Tris-HCl pH 7.5, 150 mM NaCl, 6 mM MgCl2, 1 mM DTT, 0.1% Tween-20, 0.2 mg/ml BSA; 25 C; 10 min per concentration, then washed
Conditions: tags: His6-TwinStrep-SUMO cleaved; N-terminal SNAP kept (SNAP-Surface 488); label: 3' end held by stalled T7 RNA polymerase
Please provide measured pKd for the entries that follow.
One number for each entry, as −log10 of the molar value.

BINDER	pKd
target 1 C7U,A14U (mixed) RNA 1: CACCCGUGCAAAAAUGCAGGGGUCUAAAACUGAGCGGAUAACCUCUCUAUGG RNA 2: GGGAAUGGAUCCACAUCUACGAAUUCGUACCAUAGAGUGGUUAUUCGCUCACCGAGAUCGGAAGAGCACACGU	7.43
target 3 insU 3' of 11,insA 3' of 7 (mixed) RNA 1: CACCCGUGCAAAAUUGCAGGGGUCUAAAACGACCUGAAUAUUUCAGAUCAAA RNA 2: GGGAAUGGAUCCACAUCUACGAAUUCGUUUUUGAUCUGAAAUUAUUACAGGUCUGCAGAUCGGAAGAGCACACGU	7.00

Below are some binders; for each one, tell me its pKd.
1. target 1 U10A,G15U (mixed) RNA 1: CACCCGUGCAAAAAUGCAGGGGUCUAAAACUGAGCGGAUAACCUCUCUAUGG RNA 2: GGGAAUGGAUCCACAUCUACGAAUUCGUACCAUAGAUAGGUAAUCCGCUCACCGAGAUCGGAAGAGCACACGU
2. target 1 MT 5'PFS GUU 3'PFS AUA (mixed) RNA 1: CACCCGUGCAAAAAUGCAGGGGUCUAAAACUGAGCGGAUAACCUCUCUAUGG RNA 2: GGGAAUGGAUCCACAUCUACGAAUUCGUUCCAUAGAGAGGUUAUCCGCUCAAUAAGAUCGGAAGAGCACACGU
3. target 1 insC 3' of 19,insC 3' of 9 (mixed) RNA 1: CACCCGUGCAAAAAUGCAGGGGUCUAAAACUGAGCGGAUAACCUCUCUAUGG RNA 2: GGGAAUGGAUCCACAUCUACGAAUUCGUACCAUCAGAGAGGUUACUCCGCUCACCGAGAUCGGAAGAGCACACGU
4. target 1 G13A,A16G (mixed) RNA 1: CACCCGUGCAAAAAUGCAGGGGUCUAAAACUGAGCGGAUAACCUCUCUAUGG RNA 2: GGGAAUGGAUCCACAUCUACGAAUUCGUACCAUAGGGAAGUUAUCCGCUCACCGAGAUCGGAAGAGCACACGU
5. target 1 U10C,U11C (mixed) RNA 1: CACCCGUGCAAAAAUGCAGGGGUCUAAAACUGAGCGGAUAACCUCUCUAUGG RNA 2: GGGAAUGGAUCCACAUCUACGAAUUCGUACCAUAGAGAGGCCAUCCGCUCACCGAGAUCGGAAGAGCACACGU
6. target 1 C4G,U8C (mixed) RNA 1: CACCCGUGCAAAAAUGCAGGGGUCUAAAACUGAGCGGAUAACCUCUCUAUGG RNA 2: GGGAAUGGAUCCACAUCUACGAAUUCGUACCAUAGAGAGGUUACCCGGUCACCGAGAUCGGAAGAGCACACGU

1: 7.25; 2: 7.66; 3: 7.25; 4: 7.52; 5: 7.61; 6: 8.33

Below are some binders; for each one, tell me its pKd.
1. target 1 insC 3' of 18,insG 3' of 6 (mixed) RNA 1: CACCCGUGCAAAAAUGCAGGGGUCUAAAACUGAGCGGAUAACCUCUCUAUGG RNA 2: GGGAAUGGAUCCACAUCUACGAAUUCGUACCAUACGAGAGGUUAUCCGGCUCACCGAGAUCGGAAGAGCACACGU
2. target 1 MT 5'PFS GGG 3'PFS AAG (mixed) RNA 1: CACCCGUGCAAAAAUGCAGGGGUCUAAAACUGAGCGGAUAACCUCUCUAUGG RNA 2: GGGAAUGGAUCCACAUCUACGAAUUCGGGCCAUAGAGAGGUUAUCCGCUCAAAGAGAUCGGAAGAGCACACGU
3. target 1 MT 5'PFS GAG 3'PFS ACU (mixed) RNA 1: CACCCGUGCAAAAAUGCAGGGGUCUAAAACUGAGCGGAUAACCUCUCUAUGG RNA 2: GGGAAUGGAUCCACAUCUACGAAUUCGAGCCAUAGAGAGGUUAUCCGCUCAACUAGAUCGGAAGAGCACACGU
4. target 2 MT 5'PFS GCG 3'PFS AUA (mixed) RNA 1: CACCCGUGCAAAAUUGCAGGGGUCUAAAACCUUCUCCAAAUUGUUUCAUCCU RNA 2: GGGAAUGGAUCCACAUCUACGAAUUCGCGAGGAUGAAACAAUUUGGAGAAGAUAAGAUCGGAAGAGCACACGU
5. target 1 MT 5'PFS CCU 3'PFS AAA (mixed) RNA 1: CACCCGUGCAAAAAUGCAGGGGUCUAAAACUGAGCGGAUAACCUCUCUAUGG RNA 2: GGGAAUGGAUCCACAUCUACGAAUUCCCUCCAUAGAGAGGUUAUCCGCUCAAAAAGAUCGGAAGAGCACACGU
6. target 3 insG 3' of 9,insA 3' of 3 (mixed) RNA 1: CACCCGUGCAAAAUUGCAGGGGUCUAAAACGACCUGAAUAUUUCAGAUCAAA RNA 2: GGGAAUGGAUCCACAUCUACGAAUUCGUUUUUGAUCUGAAAUAGUUCAGGAUCUGCAGAUCGGAAGAGCACACGU

[7.24, 7.62, 7.60, 7.97, 7.23, 7.26]
